Molecular target: D(4) dopamine receptor (Homo sapiens, UniProt P21917)
Sequence (P21917 whole entry): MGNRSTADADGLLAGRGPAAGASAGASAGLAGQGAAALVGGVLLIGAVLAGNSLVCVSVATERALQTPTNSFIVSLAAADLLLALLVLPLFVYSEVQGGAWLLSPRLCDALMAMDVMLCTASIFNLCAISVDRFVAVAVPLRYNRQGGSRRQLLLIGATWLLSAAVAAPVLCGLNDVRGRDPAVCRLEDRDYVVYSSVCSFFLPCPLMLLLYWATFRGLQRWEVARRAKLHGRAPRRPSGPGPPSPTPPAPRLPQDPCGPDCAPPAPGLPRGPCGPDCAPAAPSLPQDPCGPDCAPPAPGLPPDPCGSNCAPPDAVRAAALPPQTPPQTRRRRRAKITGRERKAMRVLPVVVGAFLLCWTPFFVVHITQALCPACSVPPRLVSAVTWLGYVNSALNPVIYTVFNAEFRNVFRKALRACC
pKi: −log10 of the molar value.
Give Met when the value for pKi is at least 8. Give Not met when it is less.

Structure smiles string: C#Cc1ccc(N2CCN(Cc3cnn4ccccc34)CC2)cc1
Group: Met
--
Structure smiles string: Clc1cccc(N2CCN(Cc3cnn4c3ccc3ccccc34)CC2)c1
Group: Not met
--
Structure smiles string: Clc1ccc(N2CCN(Cc3cnn4c(I)cccc34)CC2)cc1
Group: Met
--
Structure smiles string: CCN1CCN(Cc2cnn3ccccc23)CC1
Group: Not met
--
Structure smiles string: Clc1ccc(N2CCN(Cc3cc4ccccc4[nH]3)CC2)cc1
Group: Not met
--
Structure smiles string: Clc1ccc(N2CCN(Cc3ccccc3)CC2)cc1
Group: Not met
--
Structure smiles string: FC(F)(F)c1cccc(N2CCN(Cc3cnn4ccccc34)CC2)c1
Group: Met

Where do these numbers come from? They come from BindingDB's records for doi:10.1021/jm001055e.
